target: PA-IL (Pseudomonas aeruginosa); assay: Enzyme Linked Lectin Assay (ELLA), PAA-galactose coated plates; format: binding
Readout: IC50 (µM)
Numbers only here, please. The scale is µM.

Query block: Specify IC50 for O=[N+]([O-])c1ccc(O[C@@H]2O[C@H](CO)[C@H](O)[C@H](O)[C@H]2O)cc1 [Gal-ArNO2, 1-O-p-nitrophenyl-β-D-galactoside] , system PA-IL (Pseudomonas aeruginosa).
Result block: 33

###

target: PA-IL (Pseudomonas aeruginosa, UniProt Q05097); type: binding; conditions: lactose concentration required to displace 50% of PA-IL from the glycocluster; higher = better binding; read-out: IC50Lac
Sequence (Q05097 2-122): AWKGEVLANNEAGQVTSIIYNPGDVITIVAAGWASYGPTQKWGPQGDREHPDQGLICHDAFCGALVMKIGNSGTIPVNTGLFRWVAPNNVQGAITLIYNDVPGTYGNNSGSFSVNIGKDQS
Readout: IC50 (µM)
Numbers only here, please. The scale is µM.

Query block: Return the recorded IC50 value; entry: Man[POTHME(MTzAcNPhe-O-Gal)2]4 [compound 35]
Result block: 1810

###

molecular target: PA-IL (Pseudomonas aeruginosa, UniProt Q05097); assay: Surface Plasmon Resonance (SPR) inhibition; type: binding
Readout: pIC50
As a rule, pIC50 stands for the negative log10 of the concentration, concentration in M.

Query block: Return the recorded pIC50 value; entry: O=[N+]([O-])c1ccc(O[C@@H]2O[C@H](CO)[C@H](O)[C@H](O)[C@H]2O)cc1 [Gal-ArNO2, 1-O-p-nitrophenyl-β-D-galactoside]
Result block: 5.17
